Test system: LNCaP
Assay: Inhibition of cells growth by colorimetric assay (SRB), LNCaP
Type: cell-based
Details: Homo sapiens, LNCaP, 48 h, read-out: LNCAP LC50, SRB assay, 48 hours exposure
RECORDED_METRIC: CC50
Show the value, then the unit it is measured in.

Take a look at these entries with their results.
Please give the documented CC50 of C=COC(=O)Oc1c(C)c2c(c3c1[C@H]1SC[C@]4(NCCc5cc(OC(=O)OC(C)(C)C)c(OC)cc54)C(=O)OC[C@@H]3N3C1[C@H]1c4c(cc(C)c(OC)c4O)C[C@@H]([C@@H]3O)N1C)OCO2 (stereo partly drawn)
6.49 nM

Please give the documented CC50 of COc1cc2c(cc1O)CCN[C@]21CS[C@@H]2c3c(OC(=O)CCCCC4SCC5NC(=O)NC54)c(C)c4c(c3[C@H](COC1=O)N1C2[C@H]2c3c(cc(C)c(OC)c3O)C[C@@H]([C@@H]1O)N2C)OCO4 (stereo partly drawn)
5.94 nM

Please give the documented CC50 of COc1cc2c(cc1O)CCN[C@]21CS[C@@H]2c3c(OC(=O)CCCCC4SCC5NC(=O)NC54)c(C)c4c(c3[C@H](COC1=O)N1C2[C@H]2c3c(cc(C)c(OC)c3OC(=O)CCCCC3SCC5NC(=O)NC53)C[C@@H]([C@@H]1O)N2C)OCO4 (stereo partly drawn)
66.8 nM

Report CC50 for every entry below.
1. COc1cc2c(cc1OC(=O)OC(C)(C)C)CCN[C@]21CS[C@@H]2c3c(OC(=O)[C@H](C)NC(=O)OC(C)(C)C)c(C)c4c(c3[C@H](COC1=O)N1C2[C@H]2c3c(cc(C)c(OC)c3O)C[C@@H]([C@@H]1O)N2C)OCO4 (stereo partly drawn)
2. COc1cc2c(cc1O)CCN[C@]21CS[C@@H]2c3c(OC(=O)C(F)(F)C(F)(F)C(F)(F)F)c(C)c4c(c3[C@H](COC1=O)N1C2[C@H]2c3c(cc(C)c(OC)c3O)C[C@@H]([C@@H]1O)N2C)OCO4 (stereo partly drawn)
3. COc1cc2c(cc1O)CCN[C@]21CS[C@@H]2c3c(O)c(C)c4c(c3[C@H](COC1=O)N1C2[C@H]2c3c(cc(C)c(OC)c3O)C[C@@H]([C@@H]1O)N2C)OCO4 (stereo partly drawn)

1: 3.64 nM; 2: 73.6 nM; 3: 5.28 nM
